Listing: Kd of selected compounds
- TARGET_UNDER_TEST: PIK3R3(SH2dom.C-term.) (Homo sapiens, UniProt Q92569)
- Construct: SH2dom.C-term. denotes SH2 domain closest to C-terminus of protein; made in house; host or cells: HEK293 (transient transfection, unpurified extract)
- ASSAY_NAME: biochemical
- Format: binding
- EXPERIMENTAL_CONTEXT: dose-response; read-out: KD
Give the number; µM is assumed, so skip it.

structure_as_smiles=C/C(=C\C(=O)N[C@H](C(=O)N1CCC[C@H]1C(=O)N(c1ccccc1)c1ccc(I)cc1)C(C)(C)C)c1ccc(OP(=O)(O)O)cc1 test_readout=Kd reported=0.78
structure_as_smiles=O=C(CCl)Nc1cccc(CNC(=O)[C@H](Cc2ccc(OP(=O)(O)O)cc2)NC(=O)Cc2ccc(F)cc2)c1 test_readout=Kd reported=4.4

Now for another entry.
get_value(item= CC(C)(C)[C@H](NC(=O)/C=C/c1ccc(OP(=O)(O)O)cc1)C(=O)N1CCC[C@H]1C(=O)N(c1ccccc1)c1ccc(I)cc1 , readout=Kd) returns 1.02
